Assay: BmaI1 acyl-homoserine lactone synthase inhibition – biochemical, fluorescence intensity, with counterscreen (AID 720554)
Conditions: BmaI1 enzyme assay, measured here: counterscreen fluorescence % control, concentration not given here
Among all 12,000 compounds or so, about 45 (0.4%) were called active. The entries come from a sample that favours actives as a whole.
Listed below: inhibition values for each entry.

molecule: Cc1nnc(SC(C)C(N)=O)n1Cc1ccccc1 (stereo not given)
readout unit: %
inhibition: -2
//
molecule: COc1cc2c(cc1NC(=O)C(C)Sc1nncn1C)oc1ccccc12 (stereo not given)
readout unit: %
inhibition: -6.5
//
molecule: COc1ccc(C(=O)Nc2ccc(N3CCCCC3)cc2)cc1
readout unit: %
inhibition: -2
//
molecule: COc1cccc(NC(=O)/C=N/O)c1
readout unit: %
inhibition: 19.5
//
molecule: O=C(CCc1nc2ccccc2o1)Nc1cccc(-n2cnnn2)c1
readout unit: %
inhibition: 6.5
//
molecule: CC1Sc2ccc(C(=O)Oc3ccc4c(c3)OCO4)cc2NC1=O (stereo not given)
readout unit: %
inhibition: 2
//
molecule: Sc1ccc2c(c1)OCCCO2
readout unit: %
inhibition: 3.5
//
molecule: c1ccc(CNC2=NCCCCC2)nc1
readout unit: %
inhibition: -13
//
molecule: COc1ccc(N2CCN(C(=S)Cc3ccccc3)CC2)cc1
readout unit: %
inhibition: 5
//
molecule: CCN(CC)C(=S)SSC(=S)N(CC)CC
readout unit: %
inhibition: -13.5
//
molecule: COc1cccc(CC(=O)Nc2cccc(OC)c2)c1
readout unit: %
inhibition: 2
//
molecule: Cc1ccc(SCC(=O)NC(=O)C(C)C)cc1C
readout unit: %
inhibition: 8
//
molecule: CN(C)S(=O)(=O)c1cccc(COC(=O)c2cn(-c3ccccc3)nc2-c2cccs2)c1
readout unit: %
inhibition: -2.5
//
molecule: COc1cccc(N=C2NNC(C)=C(C(=O)N(C)C)S2)c1
readout unit: %
inhibition: 13.5
//
molecule: Cn1c(CC(N)=S)nc2ccccc21
readout unit: %
inhibition: 17
//
molecule: N#Cc1ccc(CSc2nncn2-c2ccccc2)cc1
readout unit: %
inhibition: -2
//
molecule: Cc1ccccc1-n1cc[nH]c1=S
readout unit: %
inhibition: 4.5
//
molecule: NC(=O)c1ccc(-c2ccccc2)o1
readout unit: %
inhibition: 40
//
molecule: CCCCN1C(=O)CC(C(=O)O)C1c1ccc(OC)cc1 (stereo not given)
readout unit: %
inhibition: 3
//
molecule: CCN(CC)S(=O)(=O)c1ccc2c(c1)nc(CCC(=O)N1CCN(c3ccccc3)CC1)n2CC
readout unit: %
inhibition: 10.5
//
molecule: CNC(=O)NC(=O)C(C)N1CCc2ccccc2C1 (stereo not given)
readout unit: %
inhibition: -2.5
//
molecule: O=C(COc1ncnc2ccc(Br)cc12)N1CCCCC1
readout unit: %
inhibition: 4.5
//
molecule: Cc1c(C(=O)O)sc2nc(CSc3nnc(-c4ccc(F)cc4)n3C)[nH]c(=O)c12
readout unit: %
inhibition: 2.5
//
molecule: COC(=O)COc1cc(NO)ccc1N=O
readout unit: %
inhibition: 4.5
//
molecule: CCCCn1ccnc1C(=O)c1ccc(S(=O)(=O)N2CCCC2)cc1
readout unit: %
inhibition: 1
//
molecule: CN(C)C(CNC(=O)c1ccc2ncsc2c1)c1cccs1 (stereo not given)
readout unit: %
inhibition: 13
//
molecule: Cc1ccccc1N1C(=O)C=CC1=O
readout unit: %
inhibition: 4
//
molecule: CCn1c(CCC(=O)N2CCN(c3ccccn3)CC2)nc2cc(S(N)(=O)=O)ccc21
readout unit: %
inhibition: -0.5
//
molecule: c1cc2n[nH]nc2cn1
readout unit: %
inhibition: -4
//
molecule: CCn1c(CCC(=O)Nc2ccc(N3CCOCC3)cc2)nc2cc(S(=O)(=O)N(C)C)ccc21
readout unit: %
inhibition: -2.5
//
molecule: COC(=O)c1c(C)oc(C)c(C(=O)OC)c1=O
readout unit: %
inhibition: 2.5
//
molecule: COc1ccc2c(Cl)c(-c3nnc4n3CCC4)sc2c1
readout unit: %
inhibition: -3.5
//
molecule: Nc1nc(N)c2nc(-c3ccccc3)c(N)nc2n1
readout unit: %
inhibition: 21
//
molecule: CC(OC(=O)c1ccc(NS(=O)(=O)c2cccs2)cc1)c1nc2scc(-c3cccs3)c2c(=O)[nH]1 (stereo not given)
readout unit: %
inhibition: 8.5
//
molecule: O=C(Nc1ccc(N2CCCCCC2)cc1)c1ccncc1
readout unit: %
inhibition: 26.5
//
molecule: CCN(CC)C(=S)SCc1ncc(-c2ccccc2)o1
readout unit: %
inhibition: 3.5
//
molecule: CN(C)Cc1ccccc1C#N
readout unit: %
inhibition: 1
//
molecule: O=S(=O)(NNC1=NCCCCC1)c1ccccc1
readout unit: %
inhibition: 28.5
//
molecule: NNc1nc(-c2ccccc2)c2cc(Br)ccc2n1
readout unit: %
inhibition: 16.5
//
molecule: COc1cccc(Nc2nnc(SCC(=O)c3cc(C)n(C)c3C)s2)c1
readout unit: %
inhibition: 9
//
molecule: Cn1c(=S)[nH]c2ccccc21
readout unit: %
inhibition: 5
//
molecule: Cc1csc(Cc2nc3ccccc3n2C)n1
readout unit: %
inhibition: 8
//
molecule: COc1cc(OC)c(OC)cc1CNC(=O)CCc1c(C)noc1C
readout unit: %
inhibition: 0
//
molecule: S=C(c1ccc(-c2ccccc2)o1)N1CCN(c2ccccc2)CC1
readout unit: %
inhibition: 13.5
//
molecule: COc1ccc(Br)cc1CN(C)CN1C(=O)C2CC=CCC2C1=O (stereo not given)
readout unit: %
inhibition: 10.5
//
molecule: CCn1c(-c2ccccc2)c(C(=O)CN2CCN(C)CC2)c2ccccc21
readout unit: %
inhibition: 2.5
//
molecule: COC(=O)c1c(C)[nH]c(=O)[nH]c1=S
readout unit: %
inhibition: 1.5
//
molecule: COc1cccc(N2C(=O)CC(n3nc(Nc4cccc(C)c4)sc3=S)C2=O)c1 (stereo not given)
readout unit: %
inhibition: 27.5
//
molecule: FC(F)n1c(=S)[nH]c2ccccc21
readout unit: %
inhibition: 0.5
//
molecule: Cc1ccc(C2=NN(C(=O)CSc3ccc4c(c3)OCCO4)C(c3ccco3)C2)cc1 (stereo not given)
readout unit: %
inhibition: 0

====

System: acyl-homoserine lactone synthase BmaI1 (Burkholderia mallei ATCC 23344)
Assay: BmaI1 acyl-homoserine lactone synthase inhibition – biochemical, fluorescence intensity, with counterscreen (AID 720554)
Conditions: BmaI1 enzyme assay, concentration not given here
Out of some 12,000 compounds screened, about 45 (0.4%) were called active. Cut-off read from the data, not from the text of the source: active = inhibition mostly above about 83% (no sharp cut-off); inactive = mostly below about 52%. The full list was thinned out, with actives kept by preference.
Classes used: t (active), f (inactive)

molecule: O=C(CCSc1ccc(Cl)cc1)Nc1ccccc1
class name: f

molecule: N#CCC(=O)Nc1ccc(C(=O)NCc2ccccc2)cc1
class name: f

molecule: Oc1c(C(c2cccnc2)N2CCCCC2)ccc2cccnc12 (configuration not stated)
class name: f

molecule: Oc1c(C(Nc2ccccn2)c2cccnc2)ccc2cccnc12 (configuration not stated)
class name: f

molecule: Cc1cc(C(=O)Cn2cnc3sccc3c2=O)c(C)n1C1CC1
class name: f

molecule: CC(C)(C)c1ccc(C(=O)NCCc2ccccn2)cc1
class name: f

molecule: CC(=O)Nc1ccc(/C=N/n2cc(-c3ccccc3)[nH]c2=S)cc1
class name: t

molecule: CCN(C(=O)CSc1nnc(-c2ccccc2)c(-c2ccccc2)n1)C1CCS(=O)(=O)C1 (configuration not stated)
class name: f

molecule: COc1cccc(-n2c(SC3CCOC3=O)nc3ccccc3c2=O)c1 (configuration not stated)
class name: f

molecule: COc1ccc2nc(NC(=O)c3ccco3)sc2c1
class name: f

molecule: COc1ccc(OCC(=O)N2CC(C)CC(C)C2)cc1 (configuration not stated)
class name: f

molecule: CCCn1c(SCCCC(=O)c2cccs2)n[nH]c1=O
class name: f

====

System: acyl-homoserine lactone synthase BmaI1 (Burkholderia mallei ATCC 23344)
Test: BmaI1 acyl-homoserine lactone synthase inhibition – biochemical, fluorescence intensity, with counterscreen (AID 720554)
Conditions: BmaI1 enzyme assay, stronger effect = higher value, concentration not given here
Out of some 12,000 compounds screened, about 45 (0.4%) were called active. What follows is part of a selection rich in actives, with near analogues and random picks from the rest.
Entries annotated with measured inhibition

molecule: CCn1c(-c2ccccc2)c(C(=O)CN2CCN(C)CC2)c2ccccc21
inhibition, %: 38

molecule: O=C(CSc1nc2ccccc2c(=O)n1C1CCCC1)Nc1ccc2c(c1)OCCO2
inhibition, %: 28

molecule: COC(=O)c1c(C)oc(C)c(C(=O)OC)c1=O
inhibition, %: 1.5

molecule: COC(=O)Cc1c(C(=O)OC)sc(N)c1C#N
inhibition, %: 5.5

molecule: CCOC(=O)C1CCN(C(C)C(=O)Nc2ccc(C(C)C)cc2)CC1 (stereo unspecified)
inhibition, %: 9.5

molecule: Cc1ccc(S(=O)(=O)NCC(=O)OC2CCOC2=O)cc1 (stereo unspecified)
inhibition, %: -3

====

Test system: acyl-homoserine lactone synthase BmaI1 (Burkholderia mallei ATCC 23344)
Assay: BmaI1 acyl-homoserine lactone synthase inhibition – biochemical, fluorescence intensity, with counterscreen (AID 720554)
Conditions: BmaI1 enzyme assay, stronger effect = higher value, concentration not given here
In all, about 12,000 compounds went through this assay and about 45 (0.4%) were called active. The entries come from a sample that favours actives as a whole.

compound: CC(=O)NS(=O)(=O)c1ccc(N)cc1
inhibition (%): -0.5
//
compound: COC(=O)COc1cc(NO)ccc1N=O
inhibition (%): 88.5
//
compound: CN(C)C(CNC(=O)c1ccc2ncsc2c1)c1cccs1 (configuration not stated)
inhibition (%): 18
//
compound: O=C(NCc1ccccc1)c1cccc(OCC(=O)N2CCOCC2)c1
inhibition (%): -13.5
//
compound: COc1cccc(NC(=O)/C=N/O)c1
inhibition (%): 37.5
//
compound: O=C(OC(c1ccccc1)c1ccccc1)c1ccncc1
inhibition (%): 14
//
compound: COc1cccc(N=C2NNC(C)=C(C(=O)N(C)C)S2)c1
inhibition (%): 88.5
//
compound: Nc1ccc(S(=O)(=O)c2ccc(N)cc2)cc1
inhibition (%): -2.5
//
compound: CC1Sc2ccc(C(=O)Oc3ccc4c(c3)OCO4)cc2NC1=O (configuration not stated)
inhibition (%): 35.5
//
compound: COc1cccc(CC(=O)Nc2cccc(OC)c2)c1
inhibition (%): 8.5
//
compound: O=C(CN1C(=O)c2ccccc2S1(=O)=O)N1N=C(c2ccc(Cl)cc2)CC1c1ccco1 (configuration not stated)
inhibition (%): 15
//
compound: Cc1nc(N2CCCCC2)sc1C1Sc2ccccc2NC1=O (configuration not stated)
inhibition (%): -2.5
